Recorded values, source patent US9561231B2.

# assay.target: second (BD2: amino acids E352-E168) bromodomain of BRD4 (Homo sapiens)
# Construct: protocol
# protocol.text: TR-FRET bromodomain binding assay, BRD4 BD2
# condition: TR-FRET assay protocol (A-G, compound concentration range); Ki calculated from IC50, probe Kd and probe concentration; read-out: TR-FRET Binding Ki: BRD4 (BDII_E352-M457)
pKi: −log10 of the molar value.
Classification field: true = pKi at or over 6; false = pKi under 6.

>  <smi>
Cn1nc(-c2ccccc2Oc2ccccc2)c(C2CCNCC2)cc1=O

>  <assay.target>
second (BD2: amino acids E352-E168) bromodomain of BRD4 (Homo sapiens)

>  <category.label>
false

$$$$
>  <smi>
CN1CCN(Cc2cccc(-c3cc(=O)n(C)nc3-c3ccccc3Oc3ccccc3)c2)CC1

>  <assay.target>
second (BD2: amino acids E352-E168) bromodomain of BRD4 (Homo sapiens)

>  <category.label>
true

$$$$
>  <smi>
CC(=O)OCc1ccc(-c2cc(=O)n(C)nc2-c2ccccc2Oc2ccccc2)cc1

>  <assay.target>
second (BD2: amino acids E352-E168) bromodomain of BRD4 (Homo sapiens)

>  <category.label>
true

$$$$
>  <smi>
COc1cc(=O)n(C)nc1-c1ccccc1OCC1CCNCC1

>  <assay.target>
second (BD2: amino acids E352-E168) bromodomain of BRD4 (Homo sapiens)

>  <category.label>
false

$$$$
>  <smi>
Cn1nc(-c2ccccc2Oc2ccccc2)c(-c2cncc(NCc3ccccc3)c2)cc1=O

>  <assay.target>
second (BD2: amino acids E352-E168) bromodomain of BRD4 (Homo sapiens)

>  <category.label>
false

$$$$
>  <smi>
CC(=O)c1cc(=O)n(C)nc1-c1ccccc1Oc1ccccc1

>  <assay.target>
second (BD2: amino acids E352-E168) bromodomain of BRD4 (Homo sapiens)

>  <category.label>
true

$$$$
>  <smi>
Cc1cc(-c2cc(NS(C)(=O)=O)ccc2OC2CCC(F)(F)CC2)c[nH]c1=O

>  <assay.target>
second (BD2: amino acids E352-E168) bromodomain of BRD4 (Homo sapiens)

>  <category.label>
true

$$$$
>  <smi>
CC(=O)c1ccc(F)c(-c2cc(=O)n(C)nc2-c2ccccc2Oc2ccccc2)c1

>  <assay.target>
second (BD2: amino acids E352-E168) bromodomain of BRD4 (Homo sapiens)

>  <category.label>
false

$$$$
>  <smi>
CCS(=O)(=O)Nc1ccc(Oc2ccc(F)cc2F)c(-c2cn(C)c(=O)cc2OC(C)C)c1

>  <assay.target>
second (BD2: amino acids E352-E168) bromodomain of BRD4 (Homo sapiens)

>  <category.label>
true

$$$$
>  <smi>
CCOc1cc(=O)n(C)cc1-c1cc(NC(=O)c2ccc(NC(C)=O)cc2)ccc1Oc1ccc(F)cc1F

>  <assay.target>
second (BD2: amino acids E352-E168) bromodomain of BRD4 (Homo sapiens)

>  <category.label>
true

$$$$
>  <smi>
CCOc1cc(=O)n(C)cc1-c1cc(NS(=O)(=O)c2cccc3ccccc23)ccc1Oc1ccc(F)cc1F

>  <assay.target>
second (BD2: amino acids E352-E168) bromodomain of BRD4 (Homo sapiens)

>  <category.label>
true

$$$$
